assay: gradient 5% acetonitrile 3 min, to 50% in 2 min, to 85% in 15 min, held 3 min, 100 µL/min; conditions: column: Zorbax Extend-C18 2.1 x 50 mm; eluents: water / acetonitrile, 0.1% formic acid
Values of RP-LC retention time greater than or equal to 800 s map to satisfied; values below map to not satisfied.

>>> classlabel("Cc1cccn2c(NCc3ccccc3)c(-c3ccccc3OC(=O)C(C)Cl)nc12 (stereo not given)")
"satisfied"
>>> classlabel("COCC1CN(C(C)=O)CC12CCN(C(=O)CSC)CC2 (stereo not given)")
"not satisfied"
>>> classlabel("Cc1ccc(C(=O)N2CCC(COc3ccc(C(=O)NC(C)C)cc3)CC2)cc1C")
"satisfied"

Origin of measurements: the METLIN SMRT retention time set (Domingo-Almenara et al. 2019)
